# Tested on: HeLa Kyoto
# test summary: melting temperature (median over replicates), in situ; higher = more thermally stable
# condition description: cell cycle stage: mitosis
measured parameter: melting temperature (°C)
Kindly provide the numeric value in °C only, without the unit symbol.

| residues | target of assay | melting temperature / °C |
| --- | --- | --- |
| MSGEPGQTSVAPPPEEVEPGSGVRIVVEYCEPCGFEATYLELASAVKEQYPGIEIESRLGGTGAFEIEINGQLVFSKLENGGFPYEKDLIEAIRRASNGETLEKITNSRPPCVIL [MIEN1] | HeLa Kyoto | 51.1 |
| MNPESSIFIEDYLKYFQDQVSRENLLQLLTDDEAWNGFVAAAELPRDEADELRKALNKLASHMVMKDKNRHDKDQQHRQWFLKEFPRLKRELEDHIRKLRALAEEVEQVHRGTTIANVVSNSVGTTSGILTLLGLGLAPFTEGISFVLLDTGMGLGAAAAVAGITCSVVELVNKLRARAQARNLDQSGTNVAKVMKEFVGGNTPNVLTLVDNWYQVTQGIGRNIRAIRRARANPQLGAYAPPPHVIGRISAEGGEQVERVVEGPAQAMSRGTMIVGAATGGILLLLDVVSLAYESKHLLEGAKSESAEELKKRAQELEGKLNFLTKIHEMLQPGQDQ [APOL2] | HeLa Kyoto | 50.8 |

# return melting temperature of MAAKVFESIGKFGLALAVAGGVVNSALYNVDAGHRAVIFDRFRGVQDIVVGEGTHFLIPWVQKPIIFDCRSRPRNVPVITGSKDLQNVNITLRILFRPVASQLPRIFTSIGEDYDERVLPSITTEILKSVVARFDAGELITQRELVSRQVSDDLTERAATFGLILDDVSLTHLTFGKEFTEAVEAKQVAQQEAERARFVVEKAEQQKKAAIISAEGDSKAAELIANSLATAGDGLIELRKLEAAEDIAYQLSRSRNITYLPAGQSVLLQLPQ [PHB] (system: HeLa Kyoto) 58.1

----------
# Tested on: HeLa Kyoto;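 further: HeLa Kyoto cells synchronized by double thymidine or nocodazole block, proteins quantified by TMT10plex mass spectrometry, three independent biological replicates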
# test summary: melting temperature (median over replicates), in situ; higher = more thermally stable
# condition description: cell cycle stage: mitosis
Recorded melting temperature, one value per entry.
Kindly provide the numeric value in °C only, without the unit symbol.

| residues | target of assay | melting temperature, °C |
| --- | --- | --- |
| MAAVAALQLGLRAAGLGRAPASAAWRSVLRVSPRPGVAWRPSRCGSSAAEASATKAEDDSFLQWVLLLIPVTAFGLGTWQVQRRKWKLNLIAELESRVLAEPVPLPADPMELKNLEYRPVKVRGCFDHSKELYMMPRTMVDPVREAREGGLISSSTQSGAYVVTPFHCTDLGVTILVNRGFVPRKKVNPETRQKGQIEGEVDLIGMVRLTETRQPFVPENNPERNHWHYRDLEAMARITGAEPIFIDANFQSTVPGGPIGGQTRVTLRNEHLQYIVTWYGLSAATSYLWFKKFLRGTPGV [SURF1] | HeLa Kyoto | 52.2 |
| MADGELNVDSLITRLLEVRGCRPGKIVQMTEAEVRGLCIKSREIFLSQPILLELEAPLKICGDIHGQYTDLLRLFEYGGFPPEANYLFLGDYVDRGKQSLETICLLLAYKIKYPENFFLLRGNHECASINRIYGFYDECKRRFNIKLWKTFTDCFNCLPIAAIVDEKIFCCHGGLSPDLQSMEQIRRIMRPTDVPDTGLLCDLLWSDPDKDVQGWGENDRGVSFTFGADVVSKFLNRHDLDLICRAHQVVEDGYEFFAKRQLVTLFSAPNYCGEFDNAGGMMSVDETLMCSFQILKPSEKKAKYQYGGLNSGRPVTPPRTANPPKKR [PPP1CB] | HeLa Kyoto | 52.1 |
| MARHVFLTGPPGVGKTTLIHKASEVLKSSGVPVDGFYTEEVRQGGRRIGFDVVTLSGTRGPLSRVGLEPPPGKRECRVGQYVVDLTSFEQLALPVLRNADCSSGPGQRVCVIDEIGKMELFSQLFIQAVRQTLSTPGTIILGTIPVPKGKPLALVEEIRNRKDVKVFNVTKENRNHLLPDIVTCVQSSRK [NTPCR] | HeLa Kyoto | 53.4 |
| MAAAANSGSSLPLFDCPTWAGKPPPGLHLDVVKGDKLIEKLIIDEKKYYLFGRNPDLCDFTIDHQSCSRVHAALVYHKHLKRVFLIDLNSTHGTFLGHIRLEPHKPQQIPIDSTVSFGASTRAYTLREKPQTLPSAVKGDEKMGGEDDELKGLLGLPEEETELDNLTEFNTAHNKRISTLTIEEGNLDIQRPKRKRKNSRVTFSEDDEIINPEDVDPSVGRFRNMVQTAVVPVKKKRVEGPGSLGLEESGSRRMQNFAFSGGLYGGLPPTHSEAGSQPHGIHGTALIGGLPMPYPNLAPDVDLTPVVPSAVNMNPAPNPAVYNPEAVNEPKKKKYAKEAWPGKKPTPSLLI [PPP1R8] | HeLa Kyoto | 51.2 |
| MASRGKTETSKLKQNLEEQLDRLMQQLQDLEECREELDTDEYEETKKETLEQLSEFNDSLKKIMSGNMTLVDELSGMQLAIQAAISQAFKTPEVIRLFAKKQPGQLRTRLAEMDRDLMVGKLERDLYTQQKVEILTALRKLGEKLTADDEAFLSANAGAILSQFEKVSTDLGSGDKILALASFEVEKTKK [LZIC] | HeLa Kyoto | 53.2 |

As a next step, examine the sequence that follows.
Give melting temperature for MAGKQAVSASGKWLDGIRKWYYNAAGFNKLGLMRDDTIYEDEDVKEAIRRLPENLYNDRMFRIKRALDLNLKHQILPKEQWTKYEEENFYLEPYLKEVIRERKEREEWAKK [UQCRB] 52.2
